Data provenance is the supplement of paper PMC7877785.

# procedureDetails: self-splicing fitness, log relative to wild type (ln ratio); higher = more splicing; Tetrahymena group I intron in knt gene, E. coli kanamycin selection, DiMSum; sequences stand for … in CUCUCU…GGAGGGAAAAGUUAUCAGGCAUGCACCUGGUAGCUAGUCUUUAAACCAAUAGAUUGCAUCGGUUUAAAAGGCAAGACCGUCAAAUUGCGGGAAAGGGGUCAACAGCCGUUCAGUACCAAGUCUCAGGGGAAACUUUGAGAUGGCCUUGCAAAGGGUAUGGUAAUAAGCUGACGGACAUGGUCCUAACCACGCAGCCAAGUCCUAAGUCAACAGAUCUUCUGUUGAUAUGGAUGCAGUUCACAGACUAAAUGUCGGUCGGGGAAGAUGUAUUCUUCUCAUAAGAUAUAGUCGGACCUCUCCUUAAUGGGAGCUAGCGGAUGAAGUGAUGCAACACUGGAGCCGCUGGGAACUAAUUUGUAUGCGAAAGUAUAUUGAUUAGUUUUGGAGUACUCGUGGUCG;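 also: selection with 25 µg/mL kanamycin versus none on LB agar overnight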
# details: 30 °C
valueKind: self-splicing fitness (ln)

Examples with their reported self-splicing fitness (ln) follow.
recordSequence: GGAGAGCAAUAUUACGUUAG
result: -3.5

recordSequence: CAUGAGCAAUAUUACGCGAG
result: -2.19

recordSequence: AUAUAGCAAUAUUACGUAUG
result: -3.36

recordSequence: CCACAGCAAUAUUACGAGGG
result: -3.22

recordSequence: CCCUAGCAAUAUUACGGACC
result: -0.914

Query: If you can, please state the reported self-splicing fitness (ln) value of UGUAAGCAAUAUUACGAUAG .
Result: -1.44

Query: If you can, please state the reported self-splicing fitness (ln) value of UAAGAGCAAUAUUACGCGCA .
Result: -1.81

Query: If you can, please state the reported self-splicing fitness (ln) value of AGAAAGCAAUAUUACGAUCC .
Result: -0.604
